assay: Novel Modifiers of Survival Motor Neuron (SMN) Protein: Gene Identification via Genome-wide siRNA Screen; conditions: HEK293T SMN2-luciferase reporter, siRNA knockdown, 72 h; actives lie on both sides;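 note: luminescence tracks full-length SMN protein made from the SMN2 reporter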
Hit rate of the full screen: of about 31,000 sequences, about 1,400 (4.5%) were called active. The sample as a whole holds a higher share of actives than the screen did.
API: label(entry) gives Met if the entry's median seed-adjusted z-score is strictly smaller than 0.07; on equality or larger values it gives Not met.

Residue Sequence: CCAGGCUAUCUUUCCGAUATT against PTPN3
Group: Met
--
Residue Sequence: GGAGUUGAUUUUAUGAUUATT against RAB30
Group: Not met
--
Residue Sequence: UGACGUGCACAGGAAGAAATT against OXCT2
Group: Met
--
Residue Sequence: GAAUUGGACAUUUCGGAUATT against NEK10
Group: Met
--
Residue Sequence: GAAACUAUAUCCACAUCAATT against GIPR
Group: Not met
--
Residue Sequence: CACUGAAUGUGAGAGCUGUTT against HRC
Group: Not met
--
Residue Sequence: AGAGCUAGAUGGAAGAACATT against SFRS3
Group: Not met
--
Residue Sequence: GGUUCACGGCUAAAGCAAUTT against DGCR8
Group: Met
--
Residue Sequence: GGAAGAUUCAGUUAACAUUTT against NUDT3
Group: Not met
--
Residue Sequence: GCCUGGAUGCUAAUCAAGATT against S100A12
Group: Not met
--
Residue Sequence: GGAUGAAGGUAGUUACGUUTT against RAVER2
Group: Met
--
Residue Sequence: AGUCCUCGGUGAUGCGUGATT against LMNB2
Group: Met
--
Residue Sequence: GGAUCAGUAUGGGCAAAGATT against CALB1
Group: Not met
--
Residue Sequence: GAGCAUCUUUGAUCGAGAATT against SPINK5
Group: Not met
--
Residue Sequence: GGAUCUAAUCUUAGAUGUATT against POLR2H
Group: Met
--
Residue Sequence: CCUGUUUCCGUGAAGAAAATT against CXCR4
Group: Met
--
Residue Sequence: GAAUCACCAUUUAAGUGCATT against PDE1C
Group: Not met
--
Residue Sequence: AAUCGAUCCUCAAUCCUUATT against ZNF676
Group: Met
--
Residue Sequence: ACAUCGUUGUGGUCAAGGUTT against ADAMTS15
Group: Not met
--
Residue Sequence: CUACCACGCAGUCAACCUUTT against LTB4R2
Group: Met
--
Residue Sequence: GAGUUUUUCGAGCUCAUGATT against PGS1
Group: Not met
--
Residue Sequence: UCCCUUACAUGUCACCAAATT against ZMIZ2
Group: Met
--
Residue Sequence: GGCUUGAGUUCAUUCAGAATT against PKN3
Group: Not met
--
Residue Sequence: GCUUAUAUGUUACCAUGGATT against COG4
Group: Met
--
Residue Sequence: AAAAGACCGUCAACCCUUATT against A2BP1
Group: Not met
--
Residue Sequence: CGUCAGCGGUUUAGCUGGATT against SLC25A10
Group: Met
--
Residue Sequence: GCCUCAUGUAAAACCCUAUTT against MYLK
Group: Met
--
Residue Sequence: GGAGUGCAAAAGGAACGAATT against APIP
Group: Met
--
Residue Sequence: CACCAACUAAUGUUACAAUTT against IFNGR1
Group: Met
--
Residue Sequence: GGUCUGUACUGGGAUUCAUTT against PKD2L2
Group: Met
--
Residue Sequence: ACACUCUUGUGGUCAAGAATT against HNRNPC
Group: Met
--
Residue Sequence: GGACUUCUUUUGUCAUGCATT against BCKDHB
Group: Not met
--
Residue Sequence: CCUGUGGUUUGCUAUCUAATT against SLC24A5
Group: Met
--
Residue Sequence: GGUGCUGAAUGUGGAGUAATT against DNAJC3
Group: Not met
--
Residue Sequence: CGACUCCGGAGGAUUGAAATT against GSX2
Group: Met
--
Residue Sequence: AGCUCUUUGCUACAGAUGATT against ACAD8
Group: Not met
--
Residue Sequence: GCUCAACAGUCCCUAGUUATT against RSC1A1
Group: Not met
--
Residue Sequence: CAACCUCACUGACCGGCAATT against HOXD11
Group: Met
--
Residue Sequence: GAAGCAGGGUUAAAGCGGATT against PRDM2
Group: Not met
--
Residue Sequence: UGGUGUCAGUGGAUCGCUATT against GPR101
Group: Met
--
Residue Sequence: GGGCUGGAAUUACUAUGGATT against CCNH
Group: Met
--
Residue Sequence: GCCUUCUGAUGGUAGAUCUTT against RANBP17
Group: Met
--
Residue Sequence: CGUGGACAGCUGCAGAAAATT against EDIL3
Group: Met
--
Residue Sequence: CAAUGUCCAGGGUAUCAUUTT against HAO2
Group: Met
--
Residue Sequence: CCUUCUGUAGGAUGCAUUUTT against LY6G5B
Group: Met
--
Residue Sequence: UGCUCAGCAGUACAACGUATT against SYN1
Group: Met
--
Residue Sequence: CUUUCACACUCGACACUGATT against HOXA2
Group: Not met
--
Residue Sequence: GGAAUUGUGGUGUUAGUAATT against POLN
Group: Met
